studySystem: Protein phosphatase 1D (Homo sapiens)
protocolNotes: RapidFire Mass Spectrometry qHTS Assay for Modulators of WT P53-Induced Phosphatase 1 (WIP1) (AID 1347424);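 also: amount of dephosphorylated VEPPL-S-QETFS peptide product formed by WIP1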
conditionSummary: WIP1 dephosphorylation of phosphopeptide, RapidFire MS; series mostly up to 63 µM
Inconclusive results are not listed. Activity calls are given as the source filed them. Calls follow the shape of the dose curve; as a rule, active = well fitted inhibition curve with a large enough effect; inconclusive = small, poorly fitted or top-dose-only effect; inactive = no such curve, though single readings can be large or run the other way.

compound	outcome
CNCCCC12CCC(c3ccccc31)c1ccccc12	inactive
Cc1ccccc1N1C(=O)c2cc(S(N)(=O)=O)c(Cl)cc2NC1C (configuration not stated)	inactive
CN1CCN2c3ccccc3Cc3ccccc3C2C1 (configuration not stated)	inactive
CN(CCOc1ccc(NS(C)(=O)=O)cc1)CCc1ccc(NS(C)(=O)=O)cc1	inactive
OCCN1CCN(CCCN2c3ccccc3Sc3ccc(C(F)(F)F)cc32)CC1	inactive
CN1CCN(C2=Nc3cc(Cl)ccc3Nc3ccccc32)CC1	inactive
O=C(c1ccc(F)cc1)C1CCN(CCn2c(=O)[nH]c3ccccc3c2=O)CC1	inactive
CN(Cc1cnc2nc(N)nc(N)c2n1)c1ccc(C(=O)N[C@@H](CCC(=O)O)C(=O)O)cc1	inactive
N[C@@H](Cc1c[nH]c2ccc(O)cc12)C(=O)O	inactive
Nc1c2c(nc3ccccc13)CCCC2	inactive
CCC1(C)CC(=O)NC1=O (configuration not stated)	inactive
O=C1N(c2ccccc2)c2ccccc2C1(Cc1ccncc1)Cc1ccncc1	inactive
CN1C(C(=O)Nc2ccccn2)=C(O)c2ccccc2S1(=O)=O	inactive
Cn1c(=O)c2[nH]cnc2n(C)c1=O	inactive
Cn1cnc2c1c(=O)[nH]c(=O)n2C	inactive
CS(=O)(=O)Nc1ccc([N+](=O)[O-])cc1Oc1ccccc1	inactive
C[C@H]1c2cccc(O)c2C(O)=C2C(=O)[C@]3(O)C(O)=C(C(N)=O)C(=O)[C@@H](N(C)C)[C@@H]3[C@@H](O)[C@@H]21	inactive
CC12CC3CC(C)(C1)CC(N)(C3)C2	inactive
O=C(Nc1ccc([N+](=O)[O-])cc1Cl)c1cc(Cl)ccc1O	inactive
CC1(C)O[C@H]2CC(=O)OC[C@]23[C@H]2CC[C@@]4(C)[C@H](c5ccoc5)OC(=O)[C@H]5O[C@]54[C@]2(C)C(=O)C[C@@H]13	inactive
CCCNCC(O)COc1ccccc1C(=O)CCc1ccccc1 (configuration not stated)	inactive
CC(C)(C)C(=O)Oc1ccc(S(=O)(=O)Nc2ccccc2C(=O)NCC(=O)O)cc1	inactive
